Field: pIC50. Provide a value for each of the molecules that follow.
measured-target: hPDE4B (Homo sapiens, UniProt Q07343)
Sequence (Q07343 whole entry): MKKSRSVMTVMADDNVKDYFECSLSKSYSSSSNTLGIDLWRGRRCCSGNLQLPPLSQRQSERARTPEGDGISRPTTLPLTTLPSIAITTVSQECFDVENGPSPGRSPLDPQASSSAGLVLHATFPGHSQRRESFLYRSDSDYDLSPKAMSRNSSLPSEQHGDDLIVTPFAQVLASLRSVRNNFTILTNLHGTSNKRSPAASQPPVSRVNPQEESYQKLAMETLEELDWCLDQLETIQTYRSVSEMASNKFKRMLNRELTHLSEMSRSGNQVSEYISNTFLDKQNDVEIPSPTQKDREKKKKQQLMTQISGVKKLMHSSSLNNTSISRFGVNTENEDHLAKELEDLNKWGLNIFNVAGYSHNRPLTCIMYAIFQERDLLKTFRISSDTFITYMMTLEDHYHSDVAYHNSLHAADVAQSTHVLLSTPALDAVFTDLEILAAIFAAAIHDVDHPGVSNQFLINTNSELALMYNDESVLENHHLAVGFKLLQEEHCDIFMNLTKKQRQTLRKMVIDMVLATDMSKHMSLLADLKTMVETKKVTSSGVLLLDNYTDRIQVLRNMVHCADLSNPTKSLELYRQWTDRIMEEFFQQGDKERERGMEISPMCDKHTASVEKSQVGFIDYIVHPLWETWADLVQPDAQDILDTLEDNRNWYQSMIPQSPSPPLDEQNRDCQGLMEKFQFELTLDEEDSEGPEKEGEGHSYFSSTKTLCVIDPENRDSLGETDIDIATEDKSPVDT
method-notes: In-vitro real-time enzyme-coupled spectrophotometric assay for PDE4 enzymes (hPDE4B)
pIC50: −log10 of the molar value. Counter-ions that a name gives are not always drawn.

QUERY: I am curious: what pIC50 value has been reported for COc1ccc(Cc2ccc(C(=O)N3CCC(C(=O)O)C3)nc2)c(F)c1-c1cccc(Cl)c1 (stereo not shown) ?
RESULT: > 5.30

QUERY: Repeat for the following molecule: COc1ccc(Cn2cnc3c(=O)[nH]c(N)nc32)cc1-c1cccc([N+](=O)[O-])c1
RESULT: 4.40 to 4.70

QUERY: Then what about the molecule FC(F)Oc1ccc(Cc2ccc(-c3nnn[nH]3)nc2)cc1-c1cccc(Cl)c1 [Example A-076, hydrochloride salt] ?
RESULT: > 5.30

QUERY: Entry to check: COc1ccc(Cc2ccc(NC(N)=O)[n+]([O-])c2)c(F)c1-c1cccc(Cl)c1
RESULT: 4.70 to 5.30

====

measured-target: hPDE4D (Homo sapiens, UniProt Q08499)
Sequence (Q08499 whole entry): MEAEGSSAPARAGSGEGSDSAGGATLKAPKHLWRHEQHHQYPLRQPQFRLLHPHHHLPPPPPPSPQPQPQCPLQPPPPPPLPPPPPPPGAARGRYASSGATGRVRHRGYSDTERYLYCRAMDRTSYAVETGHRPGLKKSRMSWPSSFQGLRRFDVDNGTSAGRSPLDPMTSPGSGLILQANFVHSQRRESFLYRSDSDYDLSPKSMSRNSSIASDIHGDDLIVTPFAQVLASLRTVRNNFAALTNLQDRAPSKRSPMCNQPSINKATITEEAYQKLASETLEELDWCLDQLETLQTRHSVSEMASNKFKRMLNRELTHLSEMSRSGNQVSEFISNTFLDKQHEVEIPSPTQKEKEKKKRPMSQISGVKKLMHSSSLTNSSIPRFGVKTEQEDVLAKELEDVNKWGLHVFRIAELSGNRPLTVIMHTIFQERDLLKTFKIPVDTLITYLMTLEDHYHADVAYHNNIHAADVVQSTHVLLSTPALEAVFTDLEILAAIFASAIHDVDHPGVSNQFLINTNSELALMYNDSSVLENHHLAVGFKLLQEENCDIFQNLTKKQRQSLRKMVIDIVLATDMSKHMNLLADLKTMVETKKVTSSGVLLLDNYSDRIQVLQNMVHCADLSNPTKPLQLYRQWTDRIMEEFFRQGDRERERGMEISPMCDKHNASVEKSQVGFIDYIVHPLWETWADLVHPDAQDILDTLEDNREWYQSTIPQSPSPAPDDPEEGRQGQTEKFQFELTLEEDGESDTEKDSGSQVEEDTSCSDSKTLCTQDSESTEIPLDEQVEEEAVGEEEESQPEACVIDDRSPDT
method-notes: In-vitro real-time enzyme-coupled spectrophotometric assay for PDE4 enzymes (hPDE4D)
pIC50: −log10 of the molar value. Where a name gives a salt, the structure may show the parent alone.
observable: pIC50

QUERY: Which measured pIC50 belongs to COC(=O)C1CCN(c2ncc(Cc3ccc(OC)c(-c4cccc(Cl)c4)c3F)cn2)C1 (stereo not drawn) [Example A-045] , tested on hPDE4D (Homo sapiens, UniProt Q08499)?
RESULT: > 5.30

QUERY: And for COc1ccc(Cc2ccc(NCC(=O)O)nc2)c(F)c1-c1cccc(Cl)c1 [Example A-035] ?
RESULT: > 5.30

QUERY: // query: COc1ccc(Cc2cnc(NS(N)(=O)=O)nc2)c(F)c1-c1cccc(Cl)c1 [Example A-012]
RESULT: > 5.30

QUERY: Now the compound COc1ccc(Cc2ccc(N3CCC3C(=O)O)nc2)cc1-c1cccc(Cl)c1 (stereo not drawn) [Example A-067, acetate salt]
RESULT: > 5.30

QUERY: For COC(=O)[C@H]1C[C@H](O)CN1Cc1ccc(OC)c(-c2cccc([N+](=O)[O-])c2)c1 [Example A-005] then?
RESULT: 4.40 to 4.70

QUERY: How about this compound: COc1ccc(Cc2ccc(C(=O)N3CCC(C(=O)O)CC3)nc2)c(F)c1-c1cccc(Cl)c1 [Example A-034]
RESULT: > 5.30

QUERY: Also COc1ccc(Cc2nnn[nH]2)c(F)c1-c1cccc(Cl)c1 [Example A-058] ?
RESULT: 4.70 to 5.30

QUERY: Would you kindly repeat that for COc1ccc(Cc2nnc(NC(=O)NCCC(=O)O)s2)c(F)c1-c1cccc(Cl)c1 [Example A-027] ?
RESULT: > 5.30

QUERY: Record: COc1ccc(Cn2ccc(C(=O)O)cc2=O)cc1-c1cccc([N+](=O)[O-])c1 [Example A-007]
RESULT: 4.70 to 5.30

QUERY: Try this compound next: COc1ccc(Cc2ccc(C(=O)O)cc2)c(F)c1-c1cccc(C(C)=O)c1 [Example A-019]
RESULT: > 5.30

QUERY: Then what about the compound CCOC(=O)C(=O)NCc1ccc(Cc2ccc(OC)c(-c3cccc(Cl)c3)c2F)cn1 [Example A-048] ?
RESULT: > 5.30

QUERY: Item: COc1ccc(Cc2ccc(F)cc2)cc1-c1ccc[n+]([O-])c1 [Example B-084]
RESULT: 4.70 to 5.30
